Cited source for all entries: PubChem BioAssay (NCATS)

Experiment: Primary qHTS for Vero E6 cytotoxicity: counterscreen for inhibitors of SARS-S pseudo-typed particle cell entry (AID 1479150)
Settings: cell viability; series mostly up to 57.1 µM
Inconclusive results are not listed. Active and inactive are the calls of the source. The call rests on the fitted dose curve.

[
  {
    "Compound": "CCCCCOc1ccccc1/C(=C\\SC)n1ccnc1",
    "outcome": "inactive"
  },
  {
    "Compound": "Oc1ccc([C@H]2CNCc3c2ccc(O)c3O)cc1O",
    "outcome": "inactive"
  },
  {
    "Compound": "O=C(OCC(COC(=O)c1cccnc1)(COC(=O)c1cccnc1)COC(=O)c1cccnc1)c1cccnc1",
    "outcome": "inactive"
  },
  {
    "Compound": "O=C1CN2CCOC2(c2ccccc2Cl)c2cc(Cl)ccc2N1 (configuration not stated)",
    "outcome": "inactive"
  },
  {
    "Compound": "COc1cc(NS(=O)(=O)c2ccc(N)cc2)nc(OC)n1",
    "outcome": "inactive"
  },
  {
    "Compound": "O=C(CCCN1CCC(O)(c2ccc(Br)cc2)CC1)c1ccc(F)cc1",
    "outcome": "inactive"
  },
  {
    "Compound": "O=C1OC2(c3ccccc31)c1cc(I)c(O)c(I)c1Oc1c2cc(I)c(O)c1I",
    "outcome": "inactive"
  },
  {
    "Compound": "COc1ccc(-c2cc(C(F)F)nn2-c2ccc(S(N)(=O)=O)cc2)cc1F",
    "outcome": "inactive"
  },
  {
    "Compound": "C[C@@H]1C[C@H]2[C@@H]3CCC4=CC(=O)C=C[C@]4(C)[C@@]3(F)[C@@H](O)C[C@]2(C)[C@H]1C(=O)CO",
    "outcome": "inactive"
  },
  {
    "Compound": "CCOc1ccccc1C(N)=O",
    "outcome": "inactive"
  },
  {
    "Compound": "CN(Cc1cc(Br)cc(Br)c1N)C1CCCCC1",
    "outcome": "inactive"
  },
  {
    "Compound": "C[C@@H]1CN(C2CCC(C#N)(c3ccc(F)cc3)CC2)CC[C@]1(C(=O)O)c1ccccc1 (some centres not stated)",
    "outcome": "inactive"
  },
  {
    "Compound": "CCCn1cnc2c1c(=O)n(CCCCC(C)=O)c(=O)n2C",
    "outcome": "inactive"
  },
  {
    "Compound": "CC[C@H](NC(C)C)[C@H](O)c1ccc(O)c2[nH]c(=O)ccc12",
    "outcome": "inactive"
  },
  {
    "Compound": "O=C(O)COC(=O)Cc1ccccc1Nc1c(Cl)cccc1Cl",
    "outcome": "inactive"
  },
  {
    "Compound": "CC(C)C[C@@H](N)C(=O)O",
    "outcome": "inactive"
  },
  {
    "Compound": "O=C1C(c2[nH]c3ccccc3c2O)=Nc2ccccc21",
    "outcome": "inactive"
  },
  {
    "Compound": "CC1(C)O[C@@H]2C[C@H]3[C@@H]4CCC5=CC(=O)CC[C@]5(C)[C@@]4(F)[C@@H](O)C[C@]3(C)[C@]2(C(=O)CCl)O1",
    "outcome": "inactive"
  },
  {
    "Compound": "O=C(OCc1ccccc1)c1ccc(O)cc1",
    "outcome": "inactive"
  },
  {
    "Compound": "CC[N+](CC)(CC)CCOC(=O)C(C1CCCC1)C1CCCC1",
    "outcome": "inactive"
  },
  {
    "Compound": "Cc1c(-c2ccccc2)oc2c(C(=O)OCCN3CCCCC3)cccc2c1=O",
    "outcome": "inactive"
  },
  {
    "Compound": "COc1cc(C(=O)OCCCN2CCCN(CCCOC(=O)c3cc(OC)c(OC)c(OC)c3)CC2)cc(OC)c1OC",
    "outcome": "inactive"
  }
]
